system: human serum albumin (HSA) (Homo sapiens)
Sequence (P02768 25-609): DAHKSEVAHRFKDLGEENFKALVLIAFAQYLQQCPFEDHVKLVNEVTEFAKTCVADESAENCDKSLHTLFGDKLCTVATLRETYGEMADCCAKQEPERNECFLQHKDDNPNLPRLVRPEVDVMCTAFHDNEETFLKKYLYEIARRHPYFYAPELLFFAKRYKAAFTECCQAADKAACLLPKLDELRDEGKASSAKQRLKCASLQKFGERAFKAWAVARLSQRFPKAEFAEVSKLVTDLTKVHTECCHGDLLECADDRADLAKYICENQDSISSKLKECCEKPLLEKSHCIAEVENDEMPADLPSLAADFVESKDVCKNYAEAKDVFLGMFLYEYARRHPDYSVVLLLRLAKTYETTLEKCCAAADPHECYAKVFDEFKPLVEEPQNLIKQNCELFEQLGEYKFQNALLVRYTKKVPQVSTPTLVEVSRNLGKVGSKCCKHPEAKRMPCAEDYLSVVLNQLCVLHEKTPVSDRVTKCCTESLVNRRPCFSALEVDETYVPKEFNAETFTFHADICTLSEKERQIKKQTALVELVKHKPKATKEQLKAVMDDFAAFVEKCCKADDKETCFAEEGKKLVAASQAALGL
assay: Quenching of natural fluorescence of human serum albumin
Type: binding
measurement.context: HSA […] 10^–5 M, 37 °C
For each entry below, report its number of binding sites n value.
Numbers only.

{"compound": "COc1cc(-c2[o+]c3cc(O)cc(O)c3cc2OC2OC(CO)C(O)C(O)C2O)ccc1O (centres unmarked) [Pn 3-glc, Peonidin 3-O-glucoside]", "number of binding sites n": 0.91}

Answer for every listed entry: what is its number of binding sites n? The entries follow.
1. COc1cc(-c2[o+]c3cc(O)cc(O)c3cc2OC2OC(CO)C(O)C(O)C2O)cc(O)c1O (centres unmarked) [Pt 3-glc, Petunidin 3-O-glucoside]
2. OCC1OC(Oc2cc3c(O)cc(O)cc3[o+]c2-c2cc(O)c(O)c(O)c2)C(O)C(O)C1O (centres unmarked) [Dp 3-glc, Delphinidin 3-O-glucoside]
3. Oc1cc(O)c2cc(O)c(-c3cc(O)c(O)c(O)c3)[o+]c2c1
4. COc1cc(-c2[o+]c3cc(O)cc(O)c3cc2O)cc(O)c1O

Completion:
1. 0.92
2. 0.96
3. 1.03
4. 1.03
